# TESTED SYSTEM: T1, Hof1, Q05080
# T1 sequence (Q05080 590-669, looked up): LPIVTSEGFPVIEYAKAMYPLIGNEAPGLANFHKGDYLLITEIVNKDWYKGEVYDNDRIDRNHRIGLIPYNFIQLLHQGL
# TEST DESCRIPTION: SPOT array
# CONDITION: median of control spots 4086
PARAMETER MEASURED: SPOT intensity
// keep it numeric: no unit symbol after the value

Input `NRPAIRIPSLKKPAL` . Output SPOT intensity: 13

Input `RLSFFFPLDPAYIRN` . Output SPOT intensity: 48

Input `HRRRRVFSIPSLKSI` . Output SPOT intensity: 17

Input `DFTLPPPPPPPGLDE` . Output SPOT intensity: 6
